Measured values drawn from PubChem BioAssay for this set.

Molecular target: Carbonic anhydrase 2 (Homo sapiens) (UniProt P00918)
Test: CAII small-molecule binders, profiling panel, biochemical, small-molecule microarray, Alexa647-labelled CAII (AID 1122)
Conditions: CAII-A647 binding fluorescence, higher = more signal
Recorded composite z-score values for a group of compounds are listed next.
Please state the value as a number alone, without comment.

Record excerpt, results attached:
| compound | composite z-score |
| --- | --- |
| CC(C)CNC(=O)[C@@H]1c2ccccc2C(=O)N(CC23CC4CC(CC(C4)C2)C3)[C@H]1c1ccc(CO)cc1 | 0.132 |
| CC(C)c1ccc(NN2C(C(O)C(C)C)C=CC3C(=O)N(c4ccccc4)C(=O)C32)cc1 (stereo unspecified) | 0.615 |
| CN1C=C(C(=O)OCCS(C)(=O)=O)C(C(=O)OCCS(C)(=O)=O)=CC(CCCO)=CC1c1ccc(CN2CCCC2)cc1 (stereo unspecified) | 0.746 |
| COC(=O)[C@@]1(Cc2ccccc2)[C@@H]2[C@@H](CC(=O)[C@H]2CC(=O)C(=O)N(C)C)CN1C(=O)c1ccccc1 | 0.838 |
| O=C1N(CCS(=O)(=O)c2ccccc2)c2ccccc2[C@@H]2OC(c3ccc(OCCCO)cc3)=N[C@]12CCS(=O)(=O)c1ccccc1 | 0.503 |
| CN(C)C(=O)[C@]1(Cc2ccccc2CN=[N+]=[N-])N=C(c2ccc(OCCCO)cc2)O[C@@H]1c1ccccc1N=[N+]=[N-] | 0.58 |
| CN(C)CCCNC(=O)[C@@H]1c2ccccc2C(=O)N(C2Cc3ccccc3C2)[C@H]1c1ccc(CO)cc1 | 0.505 |
| CCCC=C(CCC)[C@@H](NC(=O)c1ccccc1)c1ccc(C(=O)OC)cc1 | 0.526 |
| CN(C)CCCC[C@@H]1NC(=O)[C@H]2C[C@@H](C(=O)NCc3ccc(F)cc3)[C@@H](c3ccc(O)cc3)N2C1=O | 0.757 |
| C=CCC(OC(C)=O)[C@@H]1[C@@H](N(Cc2cc3ccccc3o2)C(=O)c2ccc(-c3ccccc3)cc2)c2cc(OCCCO)ccc2N1C(=O)c1ccc2ccccc2n1 (stereo partly specified) | 0.0088 |

Proceed to the following item.
Memo: NC(=O)NCC#Cc1ccc2c(c1)[C@]1(C(=O)N2)[C@H](C(=O)Nc2nc3ccccc3s2)[C@H]2C(=O)O[C@H](c3ccccc3)[C@H](c3ccccc3)N2[C@@H]1c1ccc(OCCO)cc1 , reported composite z-score: 0.136

---

Assay: PSAC antagonists in infected red cells, primary screen, cell-based, P. falciparum Indochina, OD700, 1 h (AID 1154)
Settings: P. falciparum Indochina infected RBC osmotic lysis, higher = more signal, called active from +8 up or from −8 down
Recorded z-score values for a group of compounds are listed next.
Please state the value as a number alone, without comment.

Record excerpt, results attached:
| compound | experimental-result |
| --- | --- |
| CC(=O)n1cc(C(O)C2C=CC3C(=O)N(c4ccccc4)C(=O)C3N2Nc2ccccc2F)c2ccccc21 (stereo not given) | 8 |
| CN(C)C(=O)[C@@]1(CCS(=O)(=O)c2ccccc2)N=C(c2ccc(OCCCO)cc2)O[C@H]1c1ccccc1N=[N+]=[N-] | 28.1 |
| [N-]=[N+]=NCc1ccccc1[C@H]1OC(c2ccc(OCCCO)cc2)=N[C@@]1(Cc1ccccc1)C(=O)N1CCOCC1 | 28.8 |

Memo: NC(=O)N1C(=O)C2C(C1=O)C1C=C(CCCO)C2C(c2ccc(CN3CCCC3)cc2)N1Cc1cccc(OC(F)(F)F)c1 (stereo not given) , reported z-score: 1.86

Memo: CCOC(=O)C[C@H]1[C@H](OC(=O)c2ccc(C(=O)c3ccccc3)cc2)[C@@H](NC(=O)c2ccc3ccccc3c2)c2cc(OCCCO)ccc2N1C(=O)c1ccc2ccccc2n1 , reported z-score: 6.29

---

Tested on: Noggin (protein binding on small-molecule microarray)
Assay: Noggin binders on small-molecule microarray, primary screen, biochemical, 635/667 nm fluorescence (AID 1095);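 also: score merges 667 nm feature fluorescence with signal to noise over triplicate slides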
Conditions: 635 nm fluorescence, higher = more signal
Consider the following partition of reported composite z-score into named classes: lo: < -0.1; mid: ≥ -0.1 and < 0.6; hi: ≥ 0.6

Query string: Using the reported composite z-score, which band applies to CCN(CC)c1ccc(N2CC=CC34O[C@@H]5C=CCOC(=O)[C@@H]5[C@H]3C(=O)N(CCCO)[C@@H]4C2=O)cc1 (stereo partly specified) ?
Result string: lo

Query string: Using the reported composite z-score, which band applies to [N-]=[N+]=NCc1ccccc1C[C@]1(C(=O)N2CCOCC2)N=C(c2ccc(OCCCO)cc2)O[C@H]1c1ccccc1CN=[N+]=[N-] ?
Result string: hi

Query string: Using the reported composite z-score, which band applies to C=CCN1C(=O)[C@]2(O[C@H](CCO)[C@@H]([Si](C)(C)c3ccc(OC)cc3)[C@@H]2C)c2ccccc21 ?
Result string: lo

Query string: Using the reported composite z-score, which band applies to NC(=O)NCC#Cc1ccc2c(c1)[C@]1(C(=O)N2)[C@H](C(=O)Nc2nc3ccccc3s2)[C@H]2C(=O)O[C@H](c3ccccc3)[C@H](c3ccccc3)N2[C@@H]1c1ccc(OCCO)cc1 ?
Result string: mid

Query string: Using the reported composite z-score, which band applies to CN(C)CCCCNC(=O)[C@H]1C[C@H]2C(=O)N[C@@H](Cc3ccccc3)C(=O)N2[C@H]1c1cccc(OCCO)c1 ?
Result string: hi

---

Biological target: NADPH oxidase 2 (Homo sapiens)
Test: NOX2-dependent H2O2 signal modulators, primary screen, NOX inhibitor project, cell-based, HEK293-NOX2, PMA-stimulated, Amplex Red fluorescence (AID 1159); also: test concentration not given here
Details: 45 min, higher = more signal, called active from +8 up or from −8 down
experimental-readout: z-score
Please state the value as a number alone, without comment.

Record excerpt, results attached:
| compound | z-score |
| --- | --- |
| COc1ccc(NC(=O)O[C@H]2[C@H](OC(=O)Nc3ccc4c(c3)OCO4)[C@H](OC(=O)Nc3ccc4c(c3)OCO4)[C@@H](OC)O[C@@H]2CO)cc1 | -1.54 |
| CC(C)C[C@H]1NC(=O)[C@@H](C)NC(=O)[C@@]23C(=O)N[C@@H](Cc4ccccc4)C2[C@H](C)[C@@]2(C)O[C@H]2C3/C=C/C/C=C\CNC1=O (some centres not stated) | -0.115 |
| C=CC[C@]1(C(=O)NCc2ccccc2)COC(c2ccc(OCCCO)cc2)=N1 | -2.18 |
| COCCOC(=O)N1C(=O)[C@@]2(c3cc(C#CCCO)ccc31)[C@H](c1ccc(O)cc1)N1[C@H](c3ccccc3)[C@H](c3ccccc3)OC(=O)[C@H]1[C@@H]2C(=O)N1CCc2cc(OC)c(OC)cc2C1 | 0.611 |

Proceed to the following item.
Memo: COCCOC(=O)N1C(=O)[C@@]2(c3ccccc31)[C@H](C(=O)N1CCCCCCC1)[C@H]1C(=O)O[C@H](c3ccccc3)[C@H](c3ccccc3)N1[C@@H]2c1ccc(O)cc1 , reported z-score: -3.28

---

Experiment: P. aeruginosa biofilm formation inhibitors, primary screen, strain PAO1, LB-PBS medium, absorbance 600 nm (AID 1176); also: test concentration not given here
Conditions: P. aeruginosa PAO1 growth/biofilm, A600, 12 h; higher = more signal
Recorded z-score values for a group of molecules are listed next.
Please state the value as a number alone, without comment.

Record excerpt, results attached:
| molecule | z-score |
| --- | --- |
| COCCOC(=O)N1C(=O)[C@@]2(c3cc(C#CC4(O)CCCCCC4)ccc31)[C@H](c1ccc(OCCO)cc1)N1[C@H](c3ccccc3)[C@H](c3ccccc3)OC(=O)[C@H]1[C@@H]2C(N)=O | 1.84 |
| O=C1C2C=CC(C(O)c3cccs3)N(Nc3ccccc3)C2C(=O)N1c1ccccc1 (stereo not drawn) | 1.06 |

Proceed to the following item.
Memo: O=C1C2C=CC(C(O)c3ccc([N+](=O)[O-])cc3)N(Nc3ccccc3)C2C(=O)N1c1ccccc1 (stereo not drawn) , reported z-score: 0.791

---

Target: Dihydroorotate dehydrogenase (quinone), mitochondrial (Plasmodium falciparum (isolate 3D7)) (UniProt Q08210)
Sequence (Q08210 whole entry, looked up): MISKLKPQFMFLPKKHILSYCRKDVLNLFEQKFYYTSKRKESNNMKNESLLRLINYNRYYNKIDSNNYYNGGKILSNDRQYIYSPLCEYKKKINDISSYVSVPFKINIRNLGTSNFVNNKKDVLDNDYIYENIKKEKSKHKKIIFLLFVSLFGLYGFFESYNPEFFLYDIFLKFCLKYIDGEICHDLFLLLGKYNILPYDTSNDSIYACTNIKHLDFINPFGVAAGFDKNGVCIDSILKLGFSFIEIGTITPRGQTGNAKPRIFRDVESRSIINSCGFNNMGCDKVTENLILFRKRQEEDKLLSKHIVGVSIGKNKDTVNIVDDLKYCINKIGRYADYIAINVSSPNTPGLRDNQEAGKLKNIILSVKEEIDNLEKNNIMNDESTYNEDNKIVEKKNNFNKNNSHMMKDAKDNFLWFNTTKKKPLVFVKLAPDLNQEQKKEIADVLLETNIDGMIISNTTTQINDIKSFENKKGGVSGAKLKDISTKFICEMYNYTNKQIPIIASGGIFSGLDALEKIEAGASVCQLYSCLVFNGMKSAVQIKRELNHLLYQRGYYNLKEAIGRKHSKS
Assay: PfDHODH enzyme inhibitors, primary screen, biochemical, C-terminal His tag, absorbance 600 nm (AID 1175);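 also: recombinant parasite enzyme with a five histidine tag at its C terminus; test concentration not given here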
Details: DCIP absorbance 600 nm, higher = more signal, called active from +8 up or from −8 down
Recorded composite z-score values for a group of compounds are listed next.
Please state the value as a number alone, without comment.

Record excerpt, results attached:
| compound | experimental-readout | experimental-result |
| --- | --- | --- |
| COCCOC(=O)N1C(=O)[C@@]2(c3ccccc31)[C@H](C(N)=O)[C@H]1C(=O)O[C@H](c3ccccc3)[C@H](c3ccccc3)N1[C@@H]2c1ccc(OCCO)cc1 | composite z-score | -0.525 |
| C=CC[C@]1(C(=O)N(C)C)COC(c2ccc(OCCCO)cc2)=N1 | composite z-score | -0.261 |
| COc1ccc([Si](C)(C)[C@H]2[C@H](CCO)O[C@@]3(C(=O)N(Cc4ccccc4)c4ccc(N(C=O)c5ccccc5)cc43)[C@@H]2C)cc1 | composite z-score | -0.363 |
| C/C=C/CN(C(=O)C#Cc1ccccc1)[C@H](CO[Si](C)(C)C(C)(C)C)c1ccccc1 | composite z-score | -3.11 |
| COc1cc(OC)c(C(O)C2C=CC3C(=O)N(c4ccccc4)C(=O)C3N2Nc2ccccc2F)cc1Br (centres undefined) | composite z-score | -0.92 |
| CCCC[C@@H]1C[C@H]1[C@@H](NC(=O)c1ccc(C(F)(F)F)cc1)c1ccc(C(=O)OC)cc1 | composite z-score | -0.0667 |

Memo: O=C1N(CCS(=O)(=O)c2ccccc2)c2ccccc2[C@@H]2OC(c3ccc(OCCCO)cc3)=N[C@]12CCS(=O)(=O)c1ccccc1 , reported composite z-score: -0.038
